Values were extracted from paper PMC10166615.

Experiment: Pharmacokinetics after p.o. and i.v. administration
Type: in vivo
Conditions: male, mouse, plasma, iv, 10 mg/kg
measurement-name: half-life (h)

molecule-smiles	unit-annotation	readout-value
CC(C)(C)[C@H](NC(=O)C(F)(F)F)C(=O)N1C[C@@H]2CCC[C@@H]2[C@H]1C(=O)N[C@H](C#N)C[C@@H]1CCNC1=O	h	1.1

====

Experiment: Liver microsomes metabolic stability, mouse
Type: in vitro ADME

molecule-smiles	CLint scaled at 1 µM
CC(C)(C)[C@H](NC(=O)C(F)(F)F)C(=O)N1C[C@@H]2CCC[C@@H]2[C@H]1C(=O)N[C@H](C#N)C[C@@H]1CCNC1=O	368 mL/min/kg

====

Assay: Pharmacokinetics after p.o. and i.v. administration
Assay type: in vivo
Conditions: male, mouse, plasma, iv, 10 mg/kg
measurement-name: AUC(0-inf) (ng·h/mL)

compound	readout-value
CC(C)(C)[C@H](NC(=O)C(F)(F)F)C(=O)N1C[C@@H]2CCC[C@@H]2[C@H]1C(=O)N[C@H](C#N)C[C@@H]1CCNC1=O [1a]	2670

====

Assay: Liver microsomes metabolic stability, mouse
Assay type: in vitro ADME

compound	unit-annotation	CLint scaled at 0.75 h, 1 µM
CC(C)(C)[C@H](NS(=O)(=O)C(F)(F)F)C(=O)N1C[C@H]2[C@@H]([C@H]1C(=O)N[C@H](C#N)C[C@@H]1CCNC1=O)C2(C)C	mL/min/kg	55.8
CC(C)(C)[C@H](NC(=O)C(F)(F)F)C(=O)N1C[C@H]2[C@@H]([C@H]1C(=O)N[C@H](C#N)C[C@@H]1CCNC1=O)C2(C)C [Nirmatrelvir, reference compound]	mL/min/kg	1180

====

Test: Pharmacokinetics after p.o. and i.v. administration
Assay type: in vivo
Conditions: male, mouse, plasma, iv, 10 mg/kg
measurement-name: AUC(0-t) (ng·h/mL)

molecule-smiles	measurement-name	readout-value
CC(C)(C)[C@H](NC(=O)C(F)(F)F)C(=O)N1C[C@@H]2CCC[C@@H]2[C@H]1C(=O)N[C@H](C#N)C[C@@H]1CCNC1=O	AUC(0-t)	2670

====

Assay: Pharmacokinetics after p.o. and i.v. administration
Type: in vivo
Details: male, mouse, plasma, iv, 10 mg/kg

compound	unit-annotation	clearance
CC(C)(C)[C@H](NC(=O)C(F)(F)F)C(=O)N1C[C@@H]2CCC[C@@H]2[C@H]1C(=O)N[C@H](C#N)C[C@@H]1CCNC1=O	mL/min/kg	69.3
CC(C)(C)[C@H](NC(=O)C(F)(F)F)C(=O)N1C[C@H]2[C@@H]([C@H]1C(=O)N[C@H](C#N)C[C@@H]1CCNC1=O)C2(C)C [Nirmatrelvir, reference compound]	mL/min/kg	50.1
CC(C)(C)[C@H](NS(=O)(=O)C(F)(F)F)C(=O)N1C[C@H]2[C@@H]([C@H]1C(=O)N[C@H](C#N)C[C@@H]1CCNC1=O)C2(C)C	mL/min/kg	41

====

Assay: Liver microsomes metabolic stability, human
Type: in vitro ADME
measurement-name: CLint scaled at 0.75 h, 1 µM (mL/min/kg)

molecule-smiles	readout-value
CC(C)(C)[C@H](NS(=O)(=O)C(F)(F)F)C(=O)N1C[C@H]2[C@@H]([C@H]1C(=O)N[C@H](C#N)C[C@@H]1CCNC1=O)C2(C)C	2.67

====

Assay: Pharmacokinetics after p.o. and i.v. administration
Type: in vivo
Conditions: male, mouse, plasma, po, 20 mg/kg
measurement-name: half-life (h)

molecule	unit-annotation	readout-value
CC(C)(C)[C@H](NC(=O)C(F)(F)F)C(=O)N1C[C@@H]2CCC[C@@H]2[C@H]1C(=O)N[C@H](C#N)C[C@@H]1CCNC1=O [1a]	h	1

====

Assay: Pharmacokinetics after p.o. and i.v. administration
Assay type: in vivo
Details: male, mouse, plasma, po, 20 mg/kg
measurement-name: AUC(0-inf)

molecule-smiles	measurement-name	readout-value
CC(C)(C)[C@H](NC(=O)C(F)(F)F)C(=O)N1C[C@@H]2CCC[C@@H]2[C@H]1C(=O)N[C@H](C#N)C[C@@H]1CCNC1=O	AUC(0-inf)	1220 ng·h/mL

====

Test: Pharmacokinetics after p.o. and i.v. administration
Assay type: in vivo
Conditions: male, mouse, plasma, oral, 20 mg/kg
measurement-name: bioavailability (%)

molecule-smiles	readout-value
CC(C)(C)[C@H](NC(=O)C(F)(F)F)C(=O)N1C[C@@H]2CCC[C@@H]2[C@H]1C(=O)N[C@H](C#N)C[C@@H]1CCNC1=O	22.8

====

Assay: Pharmacokinetics after p.o. and i.v. administration
Assay type: in vivo
Details: male, mouse, plasma, po, 20 mg/kg
measurement-name: MRT inf

molecule-smiles	measurement-name	readout-value
CC(C)(C)[C@H](NC(=O)C(F)(F)F)C(=O)N1C[C@@H]2CCC[C@@H]2[C@H]1C(=O)N[C@H](C#N)C[C@@H]1CCNC1=O	MRT inf	52.8 min

====

Assay: Pharmacokinetics after p.o. and i.v. administration
Assay type: in vivo
Conditions: male, mouse, plasma, po, 20 mg/kg
measurement-name: AUC(0-t) (ng·h/mL)

molecule-smiles	unit-annotation	readout-value
CC(C)(C)[C@H](NC(=O)C(F)(F)F)C(=O)N1C[C@@H]2CCC[C@@H]2[C@H]1C(=O)N[C@H](C#N)C[C@@H]1CCNC1=O	ng·h/mL	1220

====

Assay: Pharmacokinetics after p.o. and i.v. administration
Assay type: in vivo
Conditions: male, mouse, plasma, iv, 10 mg/kg

molecule-smiles	MRT inf
CC(C)(C)[C@H](NC(=O)C(F)(F)F)C(=O)N1C[C@@H]2CCC[C@@H]2[C@H]1C(=O)N[C@H](C#N)C[C@@H]1CCNC1=O	14.4 min

====

Experiment: Liver microsomes metabolic stability, human
Type: in vitro ADME

molecule-smiles	unit-annotation	half-life at 1 µM
CC(C)(C)[C@H](NC(=O)C(F)(F)F)C(=O)N1C[C@@H]2CCC[C@@H]2[C@H]1C(=O)N[C@H](C#N)C[C@@H]1CCNC1=O	h	1.31

====

Test: Pharmacokinetics after p.o. and i.v. administration
Assay type: in vivo
Conditions: male, mouse, plasma, po, 20 mg/kg

compound	Cmax
CC(C)(C)[C@H](NC(=O)C(F)(F)F)C(=O)N1C[C@@H]2CCC[C@@H]2[C@H]1C(=O)N[C@H](C#N)C[C@@H]1CCNC1=O [1a]	1310 ng/mL
